Entries and their pIC50
biological target: human thrombocytes; experiment: Inhibition of binding of 3H-BIBU 52 to human thrombocytes (fibrinogen-binding test); conditions: 3H-BIBU 52 final concentration 5 nM, plasma, 20 minutes, ambient temperature; 50% inhibition of binding
pIC50: −log10 of the molar value. Where a name gives a salt, the structure may show the parent alone.
MEASURED QUANTITY: pIC50

O=C(O)C=Cc1ccc(N2CCN(CCC3CCNCC3)C2=O)c(F)c1 ... 6.60
O=C(O)CCc1ccc(N2CCN(CCC3CCNCC3)C2=O)cc1 ... 7.74
Cc1nn(-c2ccc(C(=N)N)cc2)c(=O)n1-c1ccc(CCC(=O)OC2CCCCC2)cc1.Cl ... 6.60
CCOC(=O)[C@H]1CC[C@H](N2CCN(c3ccc(C4CCNCC4)cc3)C2=O)CC1 ... 5.60
CCOC(=O)CCc1ccc(N2CCN(CCC34CCN(CC3)CC4)C2=O)cc1 ... 5.15
Cl.O=C1N(c2ccc(C3CCNCC3)cc2)CCN1[C@H]1CC[C@H](C(=O)O)CC1 ... 7.80
O=C1N(c2ccc(C34CCN(CC3)CC4)cc2)CCN1[C@H]1CC[C@H](C(=O)O)CC1 ... 7.19
Cc1nn(CCC2CCNCC2)c(=O)n1-c1ccc(CCC(=O)O)cc1 ... 6.55
N=C(N)c1ccc(N2CCN(c3ccc(CCc4nnn[nH]4)cc3)C2=O)cc1 ... 5.46
CCCC(Cc1ccc(-n2c(C)nn(CCC3CCNCC3)c2=O)cc1)C(=O)O (stereo not drawn) ... 6.12
N=C(N)c1ccc(-n2ncn([C@H]3CC[C@H](CCC(=O)O)CC3)c2=O)cc1 ... 8.54
CCOC(=O)CC[C@H]1CC[C@H](N2CCN(CCC3CCNCC3)C2=O)CC1 ... 5.24
CN1CCC(CCN2CCN(c3ccc(CCC(=O)O)cc3)C2=O)CC1 [Example 15, HCl] ... 4.92
Cl.O=C(O)CCc1ccc(N2CCN(CCC34CCN(CC3)CC4)C2=O)cc1 ... 7.59
Cc1nn(-c2ccc(C(=N)N)cc2)c(=O)n1-c1cccc(CCC(=O)O)c1 ... 6.14
O=C(O)CO[C@H]1CC[C@H](N2CCN(CCC3CCNCC3)C2=O)CC1 ... 6.70
N=C(N)c1ccc(-n2nc(-c3ccccc3)n(-c3ccc(CCC(=O)O)cc3)c2=O)cc1 ... 8.92
Cl.O=C(O)CC[C@H]1CC[C@H](N2CCN(CCC3CCNCC3)C2=O)CC1 ... 7.60
NC1CCCc2cc(N3CCN(c4ccc(CCC(=O)O)cc4)C3=O)ccc21 (stereo not drawn) ... 7.19
N#CC1(c2ccc(N3CCN(CCCCC(=O)O)C3=O)cc2)CCNCC1 ... 6.82
Cc1nn(-c2ccc(C(=N)N)cc2)c(=O)n1-c1ccc(CC(C)C(=O)O)cc1 (stereo not drawn) ... 9.10
CCOC(=O)CCc1ccc(N2CCN(CCC3CCNCC3)C2=O)cc1 ... 4.68
NCC1CCC(N2CCN(c3ccc(CCC(=O)O)cc3)C2=O)CC1 (stereo not drawn) ... 5.39
CCCCS(=O)(=O)NC(Cc1ccc(N2CCN(c3ccc(C(=N)N)cc3)C2=O)cc1)C(=O)O (stereo not drawn) ... 9.00
